// data source = patent US12364702B2

Target: STING HAQ variant (Homo sapiens, UniProt Q86WV6, G230A/R293Q/R71H)
Construct: host or cells: HEK-Blue ISG KO-STING cells (Invivogen, hkb-kostg)
Sequence (Q86WV6 whole entry R71H/G230A/R293Q): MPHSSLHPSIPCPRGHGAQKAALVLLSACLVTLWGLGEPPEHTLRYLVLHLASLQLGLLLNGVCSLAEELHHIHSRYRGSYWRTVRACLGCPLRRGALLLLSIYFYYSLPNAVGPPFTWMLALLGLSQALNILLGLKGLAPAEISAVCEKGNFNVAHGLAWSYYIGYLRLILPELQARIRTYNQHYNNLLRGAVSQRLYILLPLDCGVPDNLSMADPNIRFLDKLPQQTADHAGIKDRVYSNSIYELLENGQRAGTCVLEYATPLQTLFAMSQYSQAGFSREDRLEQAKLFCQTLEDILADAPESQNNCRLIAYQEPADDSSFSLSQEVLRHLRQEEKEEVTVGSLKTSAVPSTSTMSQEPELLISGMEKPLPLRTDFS
Experiment: SEAP reporter assay in HEK-Blue ISG KO-STING cells transfected with STING HAQ variant (Method 2)
Type: cell-based
Design: key: ratio of compound SEAP signal to 0.5% DMSO
Details: 0.0625 ng STING vector (HAQ variant), compound 5 uM, 24 h, SEAP signal vs 0.5% DMSO
Source text: Activation of STING can be determined using a SEAP reporter assay in HEK-Blue™ ISG KO-STING cells (Invivogen, cat #hkb-kostg) transfected with plasmids expressing STING variants (WT & HAQ) (referred to WO2017/175147A1). STING variants (WT & HAQ) vector were constructed based on STING-232H vector (Origene, RC208418). GFP vector (VT2069) was bought from Youbio. […]
Listed here are molecules together with their documented Fold change related to DMSO control HAQ.
readout.label: Fold change related to DMSO control HAQ

chemical.structure	readout.label	endpoint.value
CCn1nc(C)cc1C(=O)Nc1nc2cc(C(N)=O)cc(OCCCNC(=O)CN3CCOCC3)c2n1CCC[C@H]1COc2cc(C(N)=O)cc3nc(NC(=O)c4c(F)c(C)nn4CC)n1c23	Fold change related to DMSO control HAQ	17.39
CCn1nc(C)cc1C(=O)Nc1nc2cc(C(N)=O)cc(OCCCN)c2n1CCC[C@H]1COc2cc(C(N)=O)cc3nc(NC(=O)c4c(F)c(C)nn4CC)n1c23.Cl	Fold change related to DMSO control HAQ	11.97
CCn1nc(C)cc1C(=O)Nc1nc2cc(C(N)=O)cc(OCCCNC(=O)CN3CCOCC3)c2n1CCC[C@H]1COc2cc(C(N)=O)cc3nc(NC(=O)c4c(Cl)c(C)nn4CC)n1c23	Fold change related to DMSO control HAQ	26.34
CCn1nc(C)cc1C(=O)Nc1nc2cc(C(N)=O)cc(OCCCNC(=O)CN(C)C)c2n1CCC[C@H]1COc2cc(C(N)=O)cc3nc(NC(=O)c4c(F)c(C)nn4CC)n1c23	Fold change related to DMSO control HAQ	18.32
CCn1nc(C)cc1C(=O)Nc1nc2cc(C(N)=O)cc(OCCCNS(=O)(=O)CCN)c2n1CCC[C@H]1COc2cc(C(N)=O)cc3nc(NC(=O)c4cc(C)nn4CC)n1c23	Fold change related to DMSO control HAQ	31.46
CCn1nc(C)cc1C(=O)Nc1nc2cc(C(N)=O)cc(OCCCN=C(N(C)C)N(C)C)c2n1CCC[C@H]1COc2cc(C(N)=O)cc3nc(NC(=O)c4cc(C)nn4CC)n1c23	Fold change related to DMSO control HAQ	10.61
CCn1nc(C)cc1C(=O)Nc1nc2cc(C(N)=O)cc(OCCCOC)c2n1CCC[C@H]1COc2cc(C(N)=O)cc3nc(NC(=O)c4c(F)c(C)nn4CC)n1c23	Fold change related to DMSO control HAQ	32.38
CCn1nc(C)cc1C(=O)Nc1nc2cc(C(N)=O)cc(OCCCNC(=O)CN3CC[C@@H](OC)C3)c2n1CCC[C@H]1COc2cc(C(N)=O)cc3nc(NC(=O)c4cc(C)nn4CC)n1c23	Fold change related to DMSO control HAQ	16.45
CCn1nc(C)cc1C(=O)Nc1nc2cc(C#N)cc(OCCCNC(=O)CN3CCOCC3)c2n1CCC[C@H]1COc2cc(C#N)cc3nc(NC(=O)c4cc(C)nn4CC)n1c23	Fold change related to DMSO control HAQ	7.94
CCn1nc(C)cc1C(=O)Nc1nc2cc(C(N)=O)cc(OCCCNC(=O)CN3CC(OC)C3)c2n1CCC[C@H]1COc2cc(C(N)=O)cc3nc(NC(=O)c4cc(C)nn4CC)n1c23	Fold change related to DMSO control HAQ	19.89
CCn1nc(C)cc1C(=O)Nc1nc2cc(C#N)cc(OCCCNC(=O)CN3CCOCC3)c2n1CCC[C@H]1COc2cc(C(N)=O)cc3nc(NC(=O)c4cc(C)nn4CC)n1c23	Fold change related to DMSO control HAQ	12.84
CCn1nc(C)cc1C(=O)Nc1nc2cc(C(N)=O)cc(OCCCNC(=O)CN(C)C)c2n1CCC[C@H]1COc2cc(C(N)=O)cc3nc(NC(=O)c4c(Cl)c(C)nn4CC)n1c23	Fold change related to DMSO control HAQ	19.74
CCn1nc(C)cc1C(=O)Nc1nc2cc(C(N)=O)cc(OCCCNC(=O)CN3CCOCC3)c2n1CCC[C@H]1COc2cc(C#N)cc3nc(NC(=O)c4cc(C)nn4CC)n1c23	Fold change related to DMSO control HAQ	9.16
CCn1nc(C)cc1C(=O)Nc1nc2cc(C(N)=O)cc(OCCCO)c2n1CCC[C@H]1CN(C)c2cc(C(N)=O)cc3nc(NC(=O)c4cc(C)nn4CC)n1c23	Fold change related to DMSO control HAQ	23.35
CCn1nc(C)cc1C(=O)Nc1nc2cc(C(N)=O)cc(OCCCNC(=O)CN3CCC(OC)CC3)c2n1CCC[C@H]1COc2cc(C(N)=O)cc3nc(NC(=O)c4cc(C)nn4CC)n1c23	Fold change related to DMSO control HAQ	17.42
CCn1nc(C)cc1C(=O)Nc1nc2cc(C(N)=O)cc(OCCCNS(=O)(=O)C3CCNCC3)c2n1CCC[C@H]1COc2cc(C(N)=O)cc3nc(NC(=O)c4cc(C)nn4CC)n1c23	Fold change related to DMSO control HAQ	21.63
CCn1nc(C)cc1C(=O)Nc1nc2cc(C(N)=O)cc(OCCCOC)c2n1CCC[C@H]1COc2cc(C(N)=O)cc3nc(NC(=O)c4cc(C)nn4CC)n1c23	Fold change related to DMSO control HAQ	24.13
CCn1nc(C)cc1C(=O)Nc1nc2cc(C(N)=O)cc(OCCCNC(=O)CN3CCC(O)CC3)c2n1CCC[C@H]1COc2cc(C(N)=O)cc3nc(NC(=O)c4cc(C)nn4CC)n1c23	Fold change related to DMSO control HAQ	13.94
CCn1nc(C)cc1C(=O)Nc1nc2cc(C(N)=O)cc(OCCCNC(=O)CN3CC(COC)C3)c2n1CCC[C@H]1COc2cc(C(N)=O)cc3nc(NC(=O)c4cc(C)nn4CC)n1c23	Fold change related to DMSO control HAQ	19.38
CCn1nc(C)c(F)c1C(=O)Nc1nc2cc(C(N)=O)cc(OCCCOC)c2n1CCC[C@H]1COc2cc(C(N)=O)cc3nc(NC(=O)c4c(F)c(C)nn4CC)n1c23	Fold change related to DMSO control HAQ	27.58
